Consider the following compounds; for each one, report its cytotoxicity at 70.5 h.
assay: Human HepG2 cell viability assay in 384 well format; assay type: toxicity, cell-based; set-up: dose 125 nL, time 70.5 hour; concentration not given beside the values; details: HepG2 cells, read-out: Inhibition
Numbers only, in %.

# count of solved cases: 5
Report cytotoxicity at 70.5 h for Cc1nn(C)cc1CCC(=O)N1CCCC(n2cncn2)C1 (centres undefined) please. 6.4

Another compound to check: COC(=O)C(O)C1CCN(CCc2ccc(C)cc2)CC1 (centres undefined) 9.49

Another compound to check: O=C(CN1CCCCC1Cn1cncn1)NCCc1ccsc1 (centres undefined) 9.35

Another compound to check: COc1coc(C(=O)Nc2nc(-c3cccnc3)cs2)cc1=O -13.5

Another compound to check: COc1ccc(C(=O)CNC(=O)c2nc(Cl)sc2C(C)C)cc1 25

Provide cytotoxicity at 70.5 h for all items below, preserving their order.
1. CCCN1CCC(NC(=O)c2ccc(F)cc2I)CC1
2. COc1cccc(-c2cc(NCCO)nc3[nH]ccc23)n1
3. CNCCCNC1CCN(c2ccc(-n3ccnc3)cc2)CC1
4. CC(NC(=O)NCc1ccccn1)c1cccs1 (centres undefined)

-6.74
-10.9
-7.26
-13.9

---

assay: Human HepG2 cell viability assay in 384 well format; type: toxicity, cell-based; set-up: dose 125 nL, time 70.5 hour; concentration not given beside the values; conditions: HepG2 cells, read-out: Inhibition
Consider the following molecules; for each one, report its cytotoxicity at 70.5 h.
Answers are plain numbers, in %.

# count of solved cases: 5
Report cytotoxicity at 70.5 h for CS(=O)(=O)c1cncnc1C1CCCN(C(=O)NCc2ccccc2)C1 (configuration not stated) please. -6.21

Another molecule to check: N#CCCN(CC1CCOC1)Cn1ccc(-c2cccs2)n1 (configuration not stated) 8.39

Another molecule to check: CC(=O)CC(C)(C)NC(=O)CCN(C)Cc1ccc(Cl)s1 -9.29

Another molecule to check: CC(CCN1CCCn2nc(CNS(C)(=O)=O)cc2C1)c1ccccc1 (configuration not stated) 17.7

Another molecule to check: CCCN(c1ccccc1C(=O)O)S(=O)(=O)c1ccc2ccccc2c1 -6.16

Provide cytotoxicity at 70.5 h for all items below, preserving their order.
1. CSc1ncccc1C(=O)NCC(c1ccco1)N(C)C (configuration not stated)
2. CCOc1ccc(C(=O)N2CCCC2c2c(C)nn(C)c2Cl)cn1 (configuration not stated)
3. Cc1ccc2c(c1)SCC(=O)N2CC(=O)N1CCCC1c1cc(C)on1 (configuration not stated)
4. Cc1csc(N2CCN(CC(=O)Nc3nncs3)CC2C)n1 (configuration not stated)
5. O=C(Cc1cccc(F)c1)N1C[C@H]2CN(Cc3cccnc3)C[C@H]2C1
6. Cc1ccccc1OCCSc1nnc(CC2CCS(=O)(=O)C2)n1C (configuration not stated)
7. CCn1cc(-c2cc(-c3ccn(C)c3)nc(N)c2C#N)cc1C#N
8. O=C(c1cccnc1)N1CCCC(c2ccnc3nccn23)C1 (configuration not stated)

1: 4.37; 2: -1.78; 3: -1.98; 4: -10; 5: -12; 6: -7.8; 7: 5.48; 8: 7.06

---

Consider the following molecules; for each one, report its cytotoxicity at 70.5 h.
assay: Human HepG2 cell viability assay in 384 well format; format: toxicity, cell-based; parameters: dose 125 nL, time 70.5 hour; concentration not given beside the values; details: HepG2 cells, read-out: Inhibition
One number for each entry, in %.

# count of solved cases: 5
Report cytotoxicity at 70.5 h for CC(C)(C)NC(=O)C1CSCN1S(=O)(=O)c1ccc(F)cc1 (stereo not given) please. -1.49

Another molecule to check: CCc1cc(N[C@H]2CCC[C@H]2CO)n2nc(C)c(C)c2n1 -2.92

Another molecule to check: COCC(=O)NCc1cc(=O)n2c(n1)CN(Cc1ccncc1)CCC2 -0.67

Another molecule to check: CCCC(NC(=O)c1cncc(C)c1)c1nnn[nH]1 (stereo not given) 6.22

Another molecule to check: CCOc1cccnc1C(=O)N1CCC(c2ccccc2OC)C1 (stereo not given) -8.54

Provide cytotoxicity at 70.5 h for all items below, preserving their order.
1. O=C(c1cc(CC2(NCc3ccccc3)COC2)no1)N1CCCCC1
2. O=C(c1cnc2n1CCN(Cc1ccccc1)C2)N1CCCC1
3. CN(Cc1csc(-c2cccs2)n1)Cc1ncccc1C(=O)O
4. CNS(=O)(=O)CCCn1nnc(-c2ccc(F)c(C)c2)n1
5. Cc1cc(C(=O)N2CCC3(CC2)C(=O)N(C)CCN3CC(C)C)c(C)o1
6. Cc1cccc(C(=O)N2CCCN(Cc3cnn(C)c3)CC2)n1
7. Cc1csc(NC(=O)CN2CCc3nn(C)c(=O)cc3C2)n1
8. CN(C)C(=O)C1CN(Cc2cscn2)CCN(S(C)(=O)=O)C1 (stereo not given)

[-5.63, -9.37, -12.2, -3.63, -10.1, -19.9, -8.05, 7.94]

---

Consider the following compounds; for each one, report its cytotoxicity at 70.5 h.
experiment: Human HepG2 cell viability assay in 384 well format; format: toxicity, cell-based; parameters: dose 125 nL, time 70.5 hour; concentration not given beside the values; settings: HepG2 cells, read-out: Inhibition
Answers are plain numbers, in %.

Report cytotoxicity at 70.5 h for c1cc(-c2noc([C@@H]3CCCN3CC3CC3)n2)cc(N2CCCC2)n1 please. -11.8

Another compound to check: c1cnc(N2CCN(CCn3ccnc3-c3c[nH]cn3)CC2)nc1 -6.35

Another compound to check: CCN(CC1CN(Cc2ncc[nH]2)CCO1)c1cccnn1 (stereo not given) -6.7

Provide cytotoxicity at 70.5 h for all items below, preserving their order.
1. CC(C)c1cc2c(O)nc(CSCC(=O)O)nc2s1
2. CC(C(N)=O)n1nc(-c2cccs2)cc(N)c1=O (stereo not given)
3. COc1ccc(C(C)=O)cc1CN1CCn2cccc2C1C (stereo not given)

[-14.7, -3.21, -6.89]

---

Consider the following compounds; for each one, report its cytotoxicity at 70.5 h.
assay: Human HepG2 cell viability assay in 384 well format; format: toxicity, cell-based; parameters: dose 125 nL, time 70.5 hour; concentration not given beside the values; settings: HepG2 cells, read-out: Inhibition
Answers are plain numbers, in %.

Report cytotoxicity at 70.5 h for CN(C)CCOCc1cncc2c1CCN(C(=O)C1CCOCC1)C2 please. -6.54

Another compound to check: CN(Cc1cc(-c2ccccc2)no1)C(=O)CNS(C)(=O)=O 23.3

Another compound to check: COc1ccc(Cl)cc1-n1nc(C2CCCC2)nc1Cn1cnnn1 5.4

Another compound to check: Cc1noc(CCCC(=O)NC(C)c2cccnc2)n1 (stereo unspecified) 0.606

Another compound to check: CCN(C(=O)c1ccc2nnc(C3CCN(S(C)(=O)=O)C3)n2c1)C(C)C (stereo unspecified) -9.62

Another compound to check: CC(c1cccnc1)N(C)Cc1csc(-c2ccccn2)n1 (stereo unspecified) 8.67

Another compound to check: COCCN1CCC(c2nc3c([nH]2)CCCNC3=O)CC1 -8.24

Another compound to check: NC(=O)CC1CCN(c2ncnc3cccc(F)c23)CC1 -3.61

Another compound to check: CCOc1ccc(CN(CC)C(=O)c2ccc(C)[nH]c2=O)cc1OC -0.243

Another compound to check: CNC(=O)[C@@H]1C[C@H]2CN(Cc3nccs3)C[C@H]2N1C 6.13

Proceeding to the next compound to report its cytotoxicity at 70.5 h.
Report cytotoxicity at 70.5 h for CCCc1nnc(NC(=O)Cc2c(C)nc(C)[nH]c2=O)s1 please. -6.43

---

assay: Human HepG2 cell viability assay in 384 well format; type: toxicity, cell-based; set-up: dose 125 nL, time 70.5 hour; concentration not given beside the values; conditions: HepG2 cells, read-out: Inhibition
Consider the following compounds; for each one, report its cytotoxicity at 70.5 h.
Numbers only, in %.

# count of solved cases: 5
Report cytotoxicity at 70.5 h for CCN1CCN(Cc2nc(CCc3ccccc3)n[nH]2)CC1 please. 29.9

Another compound to check: CCOc1ccccc1OC1CCN(C(=O)c2csnn2)CC1 -5.03

Another compound to check: CCNC(=O)C(C)Oc1ccc(N(C)S(C)(=O)=O)cc1 (configuration not stated) -5.5

Another compound to check: CCNC(=O)NCC(CC)(OC)c1ccccc1 (configuration not stated) -5.55

Another compound to check: CC(C)c1nnc(N2C[C@@H](CN(C)CCO)[C@@H](CO)C2)s1 12.7

Provide cytotoxicity at 70.5 h for all items below, preserving their order.
1. Fc1cnc(N2CCO[C@H]3[C@H](OCC4CCOCC4)CC[C@@H]32)nc1
2. C=C1c2ccccc2C(=O)N1CCC(=O)N1CCNC(=O)C1
3. O=C(CCc1ccc(-n2cnnn2)cc1)Nc1ccncc1
4. O=C(CN1CCOCS1(=O)=O)NCCc1ccc(Cl)cc1

1: -9.91; 2: 3.89; 3: -7.21; 4: -9.99

Value source: ChEMBL document CHEMBL3507680
